Target: Bcl-2-like protein 1 (Homo sapiens)
Sequence (Q07817 whole entry): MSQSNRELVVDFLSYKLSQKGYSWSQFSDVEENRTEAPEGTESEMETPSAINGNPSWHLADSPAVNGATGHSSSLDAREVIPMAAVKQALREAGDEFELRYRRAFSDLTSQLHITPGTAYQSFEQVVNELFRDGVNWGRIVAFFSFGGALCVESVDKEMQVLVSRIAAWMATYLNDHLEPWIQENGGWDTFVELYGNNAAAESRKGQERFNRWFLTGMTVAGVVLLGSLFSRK
Experiment: Inhibition of interaction between GST-tagged Bcl-xl and Bak by fluorescence polarization assay
readout: Emax (%)

compound	readout	measuredValue
CC1=C(O)C(=O)C2=C(C1=O)C(O)C(=O)[C@@H](C)C[C@H](C)C/C(C)=C/[C@@H](C)CC[C@H]1O[C@@H]2[C@H](C)[C@@H](O)[C@H]1C (some centres undefined)	Emax	35
CC1=C2O[C@]3(O)C=C2C(=C(O)C1=O)[C@@H]1O[C@H](CC[C@H](C)/C=C(\C)C[C@@H](C)C[C@@H]3C)[C@H](C)[C@H](O)[C@H]1C [KENDOMYCIN]	Emax	70

I = CC1=C2O[C@]34OC(C)(C)O[C@@H]3C2=C(C(=O)C1=O)[C@@H]1O[C@H](CC[C@H](C)/C=C(\C)C[C@@H](C)C[C@@H]4C)[C@H](C)[C@H](O)[C@H]1C
II = CC1=C2O[C@]34OC5(CCN(C)CC5)O[C@@H]3C2=C(C(=O)C1=O)[C@@H]1O[C@H](CC[C@H](C)/C=C(\C)C[C@@H](C)C[C@@H]4C)[C@H](C)[C@H](O)[C@H]1C
Which entry shows the lesser value of Emax here, I or II ? # reply format: chosen label
I

Ref: ChEMBL document CHEMBL1143433
